The reader will find reported melting point values listed item by item below.
Lab book: enter the figure in °C, no units written.

Compound	Unit Info	melting point
CCCCCCCCC(SCCCCCC)C(=O)Nc1c([N+](=O)[O-])ccc2ncccc12 (stereo unspecified)	°C	89.9
CCOc1ccc(NC(=S)SC)cc1F	°C	108

Now for the compound whose melting point we want.
Which melting point value is on record for O=C1c2cc3ccccc3c(-c3ccccc3)c2C(=O)N1C1CC1 ?
198

====

Measured melting point by item

Known melting point results, listed for orientation:
Compound	melting point
COc1ccc(Nc2nc(NC(CO)CO)nc(N(C)C3CCN(C)CC3)n2)cc1Cl	84 °C
CC(C)n1nc(-c2cc(C(=O)O)c(=O)[nH]c2-c2ccccc2)ccc1=O	212 to 215 °C
Cc1c(NC(=O)c2ccc(OCC3CC3)cc2)ccc2cc(CN3CCC(C)(O)CC3)[nH]c12	195 °C
CC(C)Cn1c(CNC(=O)OC(C)(C)C)c(-c2ccccc2)c2cc(-c3nc(N)cs3)ccc2c1=O	195 to 196 °C
O=C(C[C@H](NC(=O)C(F)(F)F)C(=O)O)c1ccc2c(c1)Cc1ccccc1-2	111 to 115 °C
COc1cc2cnnc(N3CCC(CCN(C)C(=O)Nc4cccnc4)CC3)c2cc1OC	200 to 204 °C
CC(C)(C)c1cc(CCc2ccc(NC(=O)Nc3ccccc3)cc2)cc(C(C)(C)C)c1O	206 to 207 °C
O=C(c1ccc(Cn2ccc3ccccc32)cc1)N1CCC(N2CCCC2)C1 (centres undefined)	141 to 153 °C

Below: the item to evaluate.
State the recorded melting point for this entry: O=C(O)c1cc(=O)c2ccc(OCCCCCOc3ccc4c(=O)ccoc4c3)cc2o1
113 to 116 °C

====

Measured melting point, listed per entry.
Field: numeric (°C). Do not append units.

Compound	Observed
CCOc1cc(C)ccc1NC1CCN(CCCCNC(=O)c2ccc(-c3ccc(C(F)(F)F)cc3)cc2)CC1	162
CC1(C)C(C=C(Br)Br)C1C(=O)OCc1cccc(Oc2ccccc2)c1 (centres undefined)	93
CCOC(=O)c1cc(Cl)cnc1NC(=O)Cc1ccccc1	114

I am curious: what melting point value has been reported for CCCCCCCC(=O)N(C)Cc1cccc(-c2ccc(C=CC(=O)O)c(F)c2)c1 ?
91

====

# maps each entry to its melting point

Please review the entries below; each comes with its answer.
Compound	melting point
CNC(=O)NC(=O)N1CCN(c2ccccc2)CC1	198 to 200 °C
Nc1ccc(Oc2cc3ccccc3cc2Oc2ccc(N)c(O)c2)cc1O	196 to 197 °C
Cc1ccc(S(=O)(=O)N2CCC(Sc3ccc(Cl)cc3)CC2)cc1	112 to 114 °C
Cc1nnc(-c2ccc(Cl)c([N+](=O)[O-])c2)[nH]1	168 °C
CC[Si](CC)(CC)OC1C(=O)NC1c1cccs1 (configuration not stated)	70 to 71 °C
COC(C)Cn1c(C)nc2cnc3ccccc3c21 (configuration not stated)	55 to 57 °C
CC1(C)OC(=O)c2c(O)cccc21	128 to 134 °C
O=S(=O)(c1ccccc1)c1ccc2c(c1)O[C@H](CO)CO2	112 to 114 °C
COP(=S)(NNC(C)(C)C)OC	51 to 54 °C
COc1cc(OC)nc(Oc2ccc(N(C)C)nc2C(=O)O)n1	195 to 198 °C

Fill blank: measured melting point of the compound O=C(c1cccs1)c1cnn2c(-c3cccc(NC/C=C/c4ccccc4)c3)ccnc12 is ____.
123 to 125 °C

Item: CCOC(=O)C(=NOCC(=O)OCC(Cl)(Cl)Cl)c1csc(N)n1
138 to 141 °C

For Fc1ccc(Cn2c(NC3CCN(CCSc4nc5ccccc5o4)CC3)nc3ccccc32)cc1 then?
174 °C

// repeat for CN(C)CCNC(=O)N1CCC(Oc2cccc(Cl)c2Cl)C1 (configuration not stated) and report
94 to 95 °C

Moving on to COc1cc2c(cc1OCc1ccccc1)CCN(Cc1ccccc1)C2
97 to 98 °C

Entry to check: Cc1cccc(-c2nccc3nc(N)nn23)c1
125 to 126 °C

====

Listed next: entries and their corresponding melting point.

Compound	melting point
Cc1nnsc1C(=O)Nc1ccc(-n2nc(C(F)(F)F)cc2C2CC2)c(F)c1	105 to 112 °C
O=C(O)CC1(O)CCc2c([nH]c3ccccc23)C1=O (stereo not drawn)	156 to 157 °C
COc1ccccc1[C@@]1(O)[C@H](O)CC(c2ccccc2)(c2ccccc2)[C@@H]2CN(C(=O)Cc3c[nH]c4ccccc34)C[C@@H]21 (racemic)	266 °C

Any idea what its melting point is? The compound is CC(C)OC(=O)NC1=NCC(c2cccc(F)c2)N1C (stereo not drawn)
103 to 104 °C

Record: CC(C)Oc1ccn2nc(-c3ccccc3)c(-c3ccc(=O)n(C(C)C)n3)c2c1
162 to 163 °C

====

// values below are reported melting point

Here's what some known entries look like.
Molecule	melting point
CC(C)(C)C(=O)Nc1ccc(Cl)cc1C(=O)C[C@H]1C(=O)OCN1C(=O)OCc1ccccc1	113 to 116 °C
CCOC(=O)CCC(=O)c1ccc(Cl)cc1OCC(O)CNC(C)(C)C (centres undefined)	70 °C
CCOC(=O)c1ncn2c1CN=C(c1ccccc1F)c1cc(Cl)ccc1-2	195 to 196 °C
Cc1c(N2CC[C@@H](C3(NC(=O)OC(C)(C)C)CC3)C2)cc(O)c2c(=O)c(C(=O)O)cn([C@@H]3C[C@@H]3F)c12	203 to 206 °C
CC(=O)CC(=O)Nc1nc2ccc(NC(C)=O)cc2s1	248 to 250 °C
CCCCc1nc2c(N)nc3ccccc3c2n1CCCNC(=O)c1cc2ccccc2cn1	204 to 205 °C
Cc1cccc(C(=O)NO)c1N(C)S(=O)(=O)c1ccc(OCCCNC(=O)c2ccc3c(c2)OCO3)cc1	102 to 112 °C
CC(C)(C)NC(=O)C1C(C=C(Cl)Cl)C1(C)C (centres undefined)	108 to 109 °C
COc1cccc(-c2cc3c4ccccc4ccn3n2)c1	109 to 111 °C
C#CCn1ccc2ccccc2c1=O	104 to 105 °C

Find the recorded melting point belonging to COC(=O)c1cncc(OCc2cccc(OCc3nc(-c4ccccc4)oc3C)c2)c1 and report it.
96 to 97 °C

Query Cc1n[nH]c2ccc(C3C(C#N)=C(C(F)F)NC(C(F)F)=C3C#N)cc12 next
289 °C

Okay, and CC(=O)Nc1ccc2c(c1)C(=O)C(=O)N2CCN(C(C)C)C(C)C ?
187 to 190 °C

Entry CN1CCN(c2cccc3c2CC[C@@H](N)C3)CC1 please
98 to 99 °C

Let us now turn to CSc1nn2c(N)cc(C)nc2c1S(=O)(=O)c1ccccc1C
> 250 °C

Record: CC(C)(C)OC(=O)NCc1nnc(S)s1
144 to 146 °C

Likewise for C#Cc1c(-c2ccc(F)cc2)cc(C(c2ccccc2)c2ccccc2)nc1C(C)C ?
106 to 108 °C

====

Item-by-item account of melting point

Examples with answers:
Compound	Observed
CCN(CC)CCC(=O)NC1(c2ccccc2Cl)C(=O)N(S(=O)(=O)c2ccc3c(c2)CCN3C(=O)N(CC)CC)c2ccc(Cl)cc21 (centres undefined)	130 to 133 °C
COC(=O)c1oc(C(C)(C)C)cc1NC(=O)Nc1ccc(F)cc1	81 to 82 °C
CN(C)CC(=O)Nc1ccc2[nH]c(=O)c3ccccc3c2c1	> 300 °C

# input for lookup
For Cc1oc(-c2ccccc2)nc1COc1cccc(COc2cncc(CC(=O)O)c2)c1 , what is its reported melting point?
158 to 159 °C

====

Each item that follows carries a reported melting point.

The examples below pair each entry with its known result.
Molecule	melting point
COc1cccc(-c2cc3nccnc3[nH]2)c1	194 to 196 °C
CCOc1ccc(C2(C(=O)O)CC(F)(F)C2(F)F)cc1 (stereo unspecified)	194 °C
Cn1c(=O)c(=O)[nH]c2ccc3c(c21)CCCN3	> 285 °C
O=C(O)C=CC=CCSc1ccccc1	108 to 110 °C
CCOc1nc2ccccc2nc1N(CC)C(=O)N1CCN(c2cc(Cl)cc(Cl)c2)CC1	115 to 117 °C
CCCC(CNC(=O)Cc1c(Cl)cncc1Cl)c1cccc(OC)c1 (stereo unspecified)	97 to 98 °C
O=C(O)c1cn(-c2cccc(OC(F)F)c2)cn1	190 to 191 °C
Cc1cc(C)c(C(C(N)=O)C(N)=O)c(C)c1	177 to 179 °C
O=C1Nc2ccccc2OC1CCCN1CCC(Cc2ccccc2)CC1 (stereo unspecified)	108 °C
Cc1oc2cc(O)ccc2c(=O)c1C(N)=O	289 to 290 °C

// below: melting point requested for another molecule
# get_value(readout='melting point', item= CN1CCC(Cc2cc3cccnc3[nH]2)C1 (stereo unspecified) )
96 to 97 °C
